# procedureDetails: Vero cell cytotoxicity assay
# Assay type: cell-based
# conditionDescription: African green monkey
recordedMetric: selectivity ratio
API note: the answer field is a bare number with no unit suffix.

Data point: Nc1ccc2c(c1)Oc1c(N3CCC(N4CCCCC4)CC3)c(F)cc3c(=O)c(C(=O)O)cn-2c13 [Compound 11g] ; selectivity ratio = 9.8

---

Reported IC50, Human topoisomerase IIα (Homo sapiens (Human), UniProt P11388).

- molecule: "Nc1ccc2c(c1)Oc1c(N3CCC(N4CCCCC4)CC3)c(F)cc3c(=O)c(C(=O)O)cn-2c13 [Compound 11g]"
  readoutValue: "1.95 to 3.9 µM"

Short answer on Human topoisomerase IIα (Homo sapiens (Human), UniProt P11388) for Nc1ccc2c(c1)Oc1c(F)c(F)cc3c(=O)c(C(=O)O)cn-2c13 , IC50: > 500 µM

Short answer on Human topoisomerase IIα (Homo sapiens (Human), UniProt P11388) for CN1CCN(c2c(F)cc3c(=O)c(C(=O)O)cn4c3c2Oc2cc([N+](=O)[O-])ccc2-4)CC1 [Compound 10a] , IC50: 250 to 500 µM

---

# studyTarget: E. coli topoisomerase I (Escherichia coli (strain K12), UniProt P06612)
# Sequence (P06612 whole entry, looked up): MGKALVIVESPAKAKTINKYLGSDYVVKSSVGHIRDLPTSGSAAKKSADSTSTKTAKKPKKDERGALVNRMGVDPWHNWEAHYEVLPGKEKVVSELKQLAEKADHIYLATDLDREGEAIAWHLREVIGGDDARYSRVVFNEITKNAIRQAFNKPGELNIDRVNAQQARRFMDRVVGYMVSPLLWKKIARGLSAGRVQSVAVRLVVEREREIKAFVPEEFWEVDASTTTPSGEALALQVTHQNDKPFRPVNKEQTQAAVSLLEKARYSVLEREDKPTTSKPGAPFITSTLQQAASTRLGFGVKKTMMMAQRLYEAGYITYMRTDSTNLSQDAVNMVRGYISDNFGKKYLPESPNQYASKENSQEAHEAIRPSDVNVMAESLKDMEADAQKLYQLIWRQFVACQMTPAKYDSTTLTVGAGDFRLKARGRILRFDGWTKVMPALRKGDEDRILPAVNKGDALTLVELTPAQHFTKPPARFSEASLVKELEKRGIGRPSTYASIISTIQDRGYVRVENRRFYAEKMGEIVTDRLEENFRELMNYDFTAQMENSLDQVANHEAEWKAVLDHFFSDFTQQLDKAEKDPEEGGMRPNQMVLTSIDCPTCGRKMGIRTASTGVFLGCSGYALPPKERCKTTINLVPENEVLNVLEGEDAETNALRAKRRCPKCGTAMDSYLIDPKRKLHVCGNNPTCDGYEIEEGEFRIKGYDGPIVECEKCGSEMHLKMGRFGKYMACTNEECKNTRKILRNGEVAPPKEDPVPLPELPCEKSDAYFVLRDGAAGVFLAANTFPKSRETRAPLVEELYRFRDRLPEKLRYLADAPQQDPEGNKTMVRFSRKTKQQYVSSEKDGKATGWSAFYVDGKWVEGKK
# procedureDetails: biochemical
# Format: biochemical
# conditionDescription: relaxation of supercoiled plasmid DNA; read-out: Topoisomerase inhibitory activity (IC50) E. coli topo I (type IA)
pIC50: −log10 of the molar value.
pIC50 overview

Data point: Nc1ccc2c(c1)Oc1c(N3CC[C@H](N)C3)c(F)cc3c(=O)c(C(=O)O)cn-2c13 [Compound 17a] ; pIC50 = 6.01 to 6.32

Data point: Nc1ccc2c(c1)Oc1c(NC34CC5CC(CC(C5)C3)C4)c(F)cc3c(=O)c(C(=O)O)cn-2c13 [Compound 11f] ; pIC50 = 5.11 to 5.41

Data point: CCOC(=O)c1cn2c3c(c(F)c(F)cc3c1=O)Oc1cc(C(F)(F)F)ccc1-2 ; pIC50 = < 3.90

Data point: O=C(O)c1cn2c3c(c(F)c(F)cc3c1=O)Oc1cc(C(F)(F)F)ccc1-2 ; pIC50 = < 3.90
